Data origin, for the record: the supplement of paper PMC10307832

System: NCI-H1944
Assay: relative viability (nuclei count vs DMSO), 5 days (fraction); higher = more cells survive
Conditions: first compound 20 µM

| COMPOUND | relative viability |
| --- | --- |
| COCC1(CO)C(=O)C2CCN1CC2 (configuration not stated) [PRIMA-1MET] + O=C(c1cc(Cc2n[nH]c(=O)c3ccccc23)ccc1F)N1CCN(C(=O)C2CC2)CC1 [Olaparib] (partner 8 µM) | 0.457 |
| COCC1(CO)C(=O)C2CCN1CC2 (configuration not stated) [PRIMA-1MET] + C[C@@H](Oc1cc(-c2cnn(C3CCNCC3)c2)cnc1N)c1c(Cl)ccc(F)c1Cl [Crizotinib] (partner 1 µM) | 1.06 |
| COCC1(CO)C(=O)C2CCN1CC2 (configuration not stated) [PRIMA-1MET] + Cc1cc(Nc2cc(N3CCN(C)CC3)nc(Sc3ccc(NC(=O)C4CC4)cc3)n2)n[nH]1 [Tozasertib] (partner 0.1 µM) | 0.23 |
| COCC1(CO)C(=O)C2CCN1CC2 (configuration not stated) [PRIMA-1MET] + Cc1nc(Nc2ncc(C(=O)Nc3c(C)cccc3Cl)s2)cc(N2CCN(CCO)CC2)n1 [Dasatinib] (partner 0.075 µM) | 0.232 |
| COCC1(CO)C(=O)C2CCN1CC2 (configuration not stated) [PRIMA-1MET] + CS(=O)(=O)N1CCN(Cc2cc3nc(-c4cccc5[nH]ncc45)nc(N4CCOCC4)c3s2)CC1 [Pictilisib] (partner 1 µM) | 0.363 |
| COCC1(CO)C(=O)C2CCN1CC2 (configuration not stated) [PRIMA-1MET] + O=C(CCCCCCC(=O)Nc1ccccc1)NO [Vorinostat] (partner 1 µM) | 0.539 |
| COCC1(CO)C(=O)C2CCN1CC2 (configuration not stated) [PRIMA-1MET] + Nc1nc2[nH]cc(CCc3ccc(C(=O)N[C@@H](CCC(=O)O)C(=O)O)cc3)c2c(=O)[nH]1 [Pemetrexed] (partner 0.2 µM) | 0.655 |
